target: Ubiquitin carboxyl-terminal hydrolase 47 (Homo sapiens); experiment: Inhibition of human USP47 using Ub-EKL as substrate by SDS-PAGE assay
Sequence (Q96K76 whole entry): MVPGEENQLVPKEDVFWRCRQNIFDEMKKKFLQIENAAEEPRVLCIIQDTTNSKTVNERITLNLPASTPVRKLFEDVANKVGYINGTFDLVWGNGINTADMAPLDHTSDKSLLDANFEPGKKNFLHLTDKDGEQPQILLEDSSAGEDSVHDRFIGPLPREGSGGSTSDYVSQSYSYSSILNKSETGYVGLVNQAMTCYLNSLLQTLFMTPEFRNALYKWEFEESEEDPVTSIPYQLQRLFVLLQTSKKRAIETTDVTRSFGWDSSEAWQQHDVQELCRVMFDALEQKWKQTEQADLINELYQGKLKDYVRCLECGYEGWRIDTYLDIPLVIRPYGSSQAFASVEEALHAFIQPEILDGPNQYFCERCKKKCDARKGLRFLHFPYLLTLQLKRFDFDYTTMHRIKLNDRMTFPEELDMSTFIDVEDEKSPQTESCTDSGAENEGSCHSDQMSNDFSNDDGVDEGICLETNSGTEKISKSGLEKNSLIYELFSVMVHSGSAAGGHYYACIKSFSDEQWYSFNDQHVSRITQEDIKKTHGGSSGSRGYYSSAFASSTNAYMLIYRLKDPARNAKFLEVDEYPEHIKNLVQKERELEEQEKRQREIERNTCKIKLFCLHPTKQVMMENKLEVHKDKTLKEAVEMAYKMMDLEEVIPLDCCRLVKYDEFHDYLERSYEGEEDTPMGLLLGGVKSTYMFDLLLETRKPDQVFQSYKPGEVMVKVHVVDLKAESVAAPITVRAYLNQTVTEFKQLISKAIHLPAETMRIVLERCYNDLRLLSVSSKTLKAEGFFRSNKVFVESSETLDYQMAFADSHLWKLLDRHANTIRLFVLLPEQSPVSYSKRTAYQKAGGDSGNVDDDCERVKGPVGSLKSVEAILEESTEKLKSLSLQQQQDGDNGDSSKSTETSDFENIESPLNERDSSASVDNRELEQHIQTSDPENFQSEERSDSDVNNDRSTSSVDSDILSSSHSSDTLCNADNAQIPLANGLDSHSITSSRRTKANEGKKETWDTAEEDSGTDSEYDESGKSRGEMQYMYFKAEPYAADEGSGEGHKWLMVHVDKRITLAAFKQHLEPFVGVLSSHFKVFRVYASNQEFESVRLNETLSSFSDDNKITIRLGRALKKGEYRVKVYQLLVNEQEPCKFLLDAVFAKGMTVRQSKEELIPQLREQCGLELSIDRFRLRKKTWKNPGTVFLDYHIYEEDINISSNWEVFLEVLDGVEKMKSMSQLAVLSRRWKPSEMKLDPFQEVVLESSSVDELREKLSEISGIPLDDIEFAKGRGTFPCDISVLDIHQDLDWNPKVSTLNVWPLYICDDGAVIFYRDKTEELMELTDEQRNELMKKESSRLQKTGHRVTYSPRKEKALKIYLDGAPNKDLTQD
measurement type: pEC50
Remember, pEC50 is on a log scale: it is -log10 of the molar concentration.

O=C(NC1CCS(=O)(=O)CC1)c1cc([N+](=O)[O-])c(Sc2c(Cl)cncc2Cl)s1    5.46

Bench note, Ubiquitin carboxyl-terminal hydrolase 47 (Homo sapiens): O=C(Nc1cccc(S(=O)(=O)CC2CC2)c1)c1cc([N+](=O)[O-])c(Sc2c(Cl)cncc2Cl)s1 , pEC50 reads 5.82

Bench note, Ubiquitin carboxyl-terminal hydrolase 47 (Homo sapiens): O=C(c1cc([N+](=O)[O-])c(Sc2c(Cl)cncc2Cl)s1)N1CCS(=O)(=O)CC1 , pEC50 reads 5.19
